SYSTEM UNDER TEST: AbCGT (Aloe vera, UniProt A0A7G9P699)
PROTOCOL DETAILS: Glycosyltransferase activity assay, purified AbCGT (wild type) with aglycon acceptors and UDP-Glc
Format: biochemical, Aloe barbadensis
CONDITIONS: reaction-2
Examples of compounds with documented WT/yield of O-glycoside(%) follow.
OBSERVABLE: WT/yield of O-glycoside(%)

{"COMPOUND": "CC(=O)c1ccc(O)cc1", "SYSTEM UNDER TEST": "AbCGT (Aloe vera, UniProt A0A7G9P699)", "OBSERVABLE": "WT/yield of O-glycoside(%)", "OBSERVED VALUE": 71.9}
{"COMPOUND": "COc1cc(O)c(C(C)=O)c(OC)c1", "SYSTEM UNDER TEST": "AbCGT (Aloe vera, UniProt A0A7G9P699)", "OBSERVABLE": "WT/yield of O-glycoside(%)", "OBSERVED VALUE": 1.6}
{"COMPOUND": "Oc1cc(O)cc(OCCCCCCc2ccccc2)c1", "SYSTEM UNDER TEST": "AbCGT (Aloe vera, UniProt A0A7G9P699)", "OBSERVABLE": "WT/yield of O-glycoside(%)", "OBSERVED VALUE": 26.9}
{"COMPOUND": "COc1cc(O)c(C(C)=O)c(O)c1", "SYSTEM UNDER TEST": "AbCGT (Aloe vera, UniProt A0A7G9P699)", "OBSERVABLE": "WT/yield of O-glycoside(%)", "OBSERVED VALUE": 22.7}
{"COMPOUND": "CC(=O)c1ccccc1O", "SYSTEM UNDER TEST": "AbCGT (Aloe vera, UniProt A0A7G9P699)", "OBSERVABLE": "WT/yield of O-glycoside(%)", "OBSERVED VALUE": 33.5}
{"COMPOUND": "CC(=O)c1cc(O)cc(O)c1 [Compound 4, 3,5-dihydroxyacetophenone]", "SYSTEM UNDER TEST": "AbCGT (Aloe vera, UniProt A0A7G9P699)", "OBSERVABLE": "WT/yield of O-glycoside(%)", "OBSERVED VALUE": 32.4}
{"COMPOUND": "CC(=O)c1c(O)cccc1O", "SYSTEM UNDER TEST": "AbCGT (Aloe vera, UniProt A0A7G9P699)", "OBSERVABLE": "WT/yield of O-glycoside(%)", "OBSERVED VALUE": 71}
{"COMPOUND": "CC(=O)c1cccc(O)c1", "SYSTEM UNDER TEST": "AbCGT (Aloe vera, UniProt A0A7G9P699)", "OBSERVABLE": "WT/yield of O-glycoside(%)", "OBSERVED VALUE": 73.8}
{"COMPOUND": "O=C1CC(O)(c2ccc(O)cc2)Oc2cc(O)cc(O)c21 (centres unmarked) [Compound 23, 2-hydroxynaringenin]", "SYSTEM UNDER TEST": "AbCGT (Aloe vera, UniProt A0A7G9P699)", "OBSERVABLE": "WT/yield of O-glycoside(%)", "OBSERVED VALUE": 16.2}
{"COMPOUND": "CC(=O)c1ccc(O)cc1O [Compound 6, 2,4-dihydroxyacetophenone]", "SYSTEM UNDER TEST": "AbCGT (Aloe vera, UniProt A0A7G9P699)", "OBSERVABLE": "WT/yield of O-glycoside(%)", "OBSERVED VALUE": 45.7}
{"COMPOUND": "CC(=O)c1c(O)cc(C)cc1O", "SYSTEM UNDER TEST": "AbCGT (Aloe vera, UniProt A0A7G9P699)", "OBSERVABLE": "WT/yield of O-glycoside(%)", "OBSERVED VALUE": 78}

====

SYSTEM UNDER TEST: AbCGT V183E (Aloe vera, UniProt A0A7G9P699, V183E)
Sequence (A0A7G9P699 1-470 V183E): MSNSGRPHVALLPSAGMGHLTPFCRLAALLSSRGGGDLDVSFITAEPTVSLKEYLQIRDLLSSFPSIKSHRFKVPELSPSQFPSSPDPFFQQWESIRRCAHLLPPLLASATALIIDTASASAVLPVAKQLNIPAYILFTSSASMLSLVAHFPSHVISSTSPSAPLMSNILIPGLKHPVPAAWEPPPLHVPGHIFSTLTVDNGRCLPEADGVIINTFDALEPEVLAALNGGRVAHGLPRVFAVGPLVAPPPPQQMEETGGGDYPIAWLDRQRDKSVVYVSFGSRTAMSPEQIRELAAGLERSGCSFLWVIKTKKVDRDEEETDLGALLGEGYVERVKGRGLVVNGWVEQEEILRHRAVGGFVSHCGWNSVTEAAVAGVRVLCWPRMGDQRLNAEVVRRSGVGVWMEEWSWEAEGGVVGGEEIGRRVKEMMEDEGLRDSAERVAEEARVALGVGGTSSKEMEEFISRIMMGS
PROTOCOL DETAILS: Glycosyltransferase activity of AbCGT variant V183E
Type: biochemical, Aloe barbadensis
CONDITIONS: reaction-2
Protocol: The reaction mixture contained 0.5 mM sugar donors (1.0 mM for di-glycosylation), 0.25 mM aglycons, 50 mM Tris-HCl (pH 7.4), and 50‒100 μg of purified AbCGT in a final volume of 100 μL. […] Subsequently, samples were centrifuged at 15,000 × g for 30 min to collect the supernatant, and aliquots were analyzed by HPLC-UV/ESIMS. […] The conversion rates of the enzyme reactions were calculated from peak areas of glycosylated products and substrates as analyzed by HPLC. […]
OBSERVABLE: V183E/yield of O-glycoside(%)

{"COMPOUND": "CC(=O)c1cc(O)cc(O)c1 [Compound 4, 3,5-dihydroxyacetophenone]", "OBSERVED VALUE": "0%"}
{"COMPOUND": "CC(=O)c1c(O)cccc1O [Compound 5]", "OBSERVED VALUE": "0%"}
{"COMPOUND": "COc1cc(O)c(C(C)=O)c(O)c1 [Compound 13]", "OBSERVED VALUE": "2%"}
{"COMPOUND": "COc1cc(O)c(C(C)=O)c(OC)c1 [Compound 14]", "OBSERVED VALUE": "0%"}
{"COMPOUND": "CC(=O)c1ccc(O)cc1 [Compound 3]", "OBSERVED VALUE": "0%"}
{"COMPOUND": "CC(=O)c1c(O)cc(C)cc1O [Compound 7]", "OBSERVED VALUE": "0%"}
{"COMPOUND": "CC(=O)c1cccc(O)c1 [Compound 2]", "OBSERVED VALUE": "0%"}
{"COMPOUND": "CC(=O)c1ccc(O)cc1O [Compound 6, 2,4-dihydroxyacetophenone]", "OBSERVED VALUE": "0%"}
{"COMPOUND": "Oc1cc(O)cc(OCCCCCCc2ccccc2)c1 [Compound 22]", "OBSERVED VALUE": "0%"}

====

SYSTEM UNDER TEST: AbCGT V183D (Aloe vera, UniProt A0A7G9P699, V183D)
PROTOCOL DETAILS: Glycosyltransferase activity of AbCGT variant V183D
Type: biochemical, Aloe barbadensis
CONDITIONS: reaction-3
OBSERVABLE: V183D/yield of O-glycoside(%)

{"MOLECULE": "CC(=O)c1c(O)cc(C)cc1O", "READOUT UNIT": "%", "OBSERVED VALUE": 1.3}
{"MOLECULE": "Oc1cc(O)cc(OCCCCCCc2ccccc2)c1", "READOUT UNIT": "%", "OBSERVED VALUE": 0}
{"MOLECULE": "CC(=O)c1ccc(O)cc1O [Compound 6, 2,4-dihydroxyacetophenone]", "READOUT UNIT": "%", "OBSERVED VALUE": 1.4}
{"MOLECULE": "COc1cc(O)c(C(C)=O)c(O)c1", "READOUT UNIT": "%", "OBSERVED VALUE": 0}
{"MOLECULE": "CC(=O)c1cc(O)cc(O)c1 [Compound 4, 3,5-dihydroxyacetophenone]", "READOUT UNIT": "%", "OBSERVED VALUE": 0}
{"MOLECULE": "O=C1CC(O)(c2ccc(O)cc2)Oc2cc(O)cc(O)c21 (centres unmarked) [Compound 23, 2-hydroxynaringenin]", "READOUT UNIT": "%", "OBSERVED VALUE": 0.8}
{"MOLECULE": "CC(=O)c1cccc(O)c1", "READOUT UNIT": "%", "OBSERVED VALUE": 0}
{"MOLECULE": "CC(=O)c1c(O)cccc1O", "READOUT UNIT": "%", "OBSERVED VALUE": 0}
{"MOLECULE": "CC(=O)c1ccccc1O", "READOUT UNIT": "%", "OBSERVED VALUE": 0}
{"MOLECULE": "COc1cc(O)c(C(C)=O)c(OC)c1", "READOUT UNIT": "%", "OBSERVED VALUE": 0}
{"MOLECULE": "CC(=O)c1ccc(O)cc1", "READOUT UNIT": "%", "OBSERVED VALUE": 0}

Where do these numbers come from? They come from paper PMC7558026.
